- experiment.summary: NCI Yeast Anticancer Drug Screen. Data for the rad50 strain (AID 155);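 also: 0% = growth of vehicle-only cultures of the same strain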
- test.settings: S. cerevisiae rad50 strain growth inhibition; at 50.0 µM (retest, dose inferred, filed as 5.0)
The panel holds about 79,000 compounds, 15% with a hit somewhere; the sample as a whole holds those more often. Activity calls are given as the source filed them. Rule as the data show it: active = growth inhibition above about 70%; inactive = the rest.
Please state which outcome applies, choosing from active, inactive

As a guide, the following entries are already answered.
>>> answer_label("CCCCN(CCCC)CC(=O)c1ccc2cc(Cl)c3ccccc3c2c1")
"active"
>>> answer_label("CC(C)c1ccc2c(c1)CC[C@H]1[C@](C)(CN)CCC[C@]21C")
"active"
>>> answer_label("Cc1cc2c(cc1C)[n+]([O-])c(-c1c(Cl)cccc1Cl)c(N)[n+]2[O-]")
"active"
>>> answer_label("O=C(c1ccccc1)N1CCN(c2cccc(Cl)c2)CC1")
"inactive"
>>> answer_label("Cc1c(C(=O)O)nc(C(Br)(Br)Br)[nH]c1=O")
"inactive"
>>> answer_label("O=C1C(Br)CCC1(c1ccccc1)c1ccccc1 (configuration not stated)")
"active"

stdin: Outcome? Cc1ccc(/C=C2\CCC/C(=C\c3ccc(O)c(CN4CCCCC4)c3)C2=O)cc1
stdout: inactive

stdin: Outcome? COc1ccc(-c2c(-c3ccccc3)c(C)nc3[nH]c(=S)[nH]c(=S)c23)cc1OC
stdout: inactive

stdin: Outcome? O=C(/C=N/O)Nc1ccc(Cl)c(I)c1
stdout: active

stdin: Outcome? O=NN(CCCl)C(=O)Nc1cc(=O)[nH]c(SCc2ccccc2)n1
stdout: inactive

stdin: Outcome? CCCCCCCCCCCCCCN1CCSCC1
stdout: inactive

stdin: Outcome? CC(C)=CCc1ccc(O)cc1
stdout: active

###

- experiment.summary: NCI Yeast Anticancer Drug Screen. Data for the cln2 rad14 strain (AID 165);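 also: 0% = growth equal to vehicle treated cultures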
- test.settings: S. cerevisiae cln2 rad14 strain, at 50.0 µM
This is part of a sample that, as a whole, favours compounds with a hit. Of some 79,000 tested, about 15% had one in any assay. The source made the active and inactive calls. Rule as the data show it: active = growth inhibition above about 70%; inactive = the rest.
Please state which outcome applies, choosing from label 1 (active), label 0 (inactive)

As a guide, the following entries are already answered.
>>> answer_label("CC1(C)[C@H]2CC[C@]1(C)[C@H](OC(=O)NNC(=O)O[C@@H]1C[C@@H]3CC[C@@]1(C)C3(C)C)C2")
"label 0"
>>> answer_label("Nc1ccc2c(c1)Cc1c(Cl)cccc1-2")
"label 1"
>>> answer_label("COc1ccccc1/C=C/c1ccnc2ccccc12")
"label 0"
>>> answer_label("CCCCCCCCCCCC(N)c1ccccc1 (stereo not given)")
"label 1"
>>> answer_label("O=C(SC(O)c1ccc(Cl)cc1)c1ccccc1 (stereo not given)")
"label 0"
>>> answer_label("CS(=O)(=O)OCCN(CCOS(C)(=O)=O)c1ccc(C=Nc2ccc(-c3csc(-c4ccc(Cl)cc4)n3)cc2)cc1")
"label 1"
>>> answer_label("CN(/N=C/c1ccc([N+](=O)[O-])o1)C(N)=O")
"label 0"
>>> answer_label("Nc1nc(-c2cccnc2)nc(N)c1N=O")
"label 0"
>>> answer_label("COc1cc(NS(=O)(=O)c2ccc(NC(C)c3ccc4cccnc4c3O)cc2)nc(OC)n1 (stereo not given)")
"label 0"
>>> answer_label("c1cc(Nc2ccc(Nc3ccc(CN4CCCCC4)cc3)cc2)ccc1CN1CCCCC1")
"label 1"

stdin: Outcome? CC(=O)c1c(-c2ccco2)c(C#N)c(=S)n(C2OC(CO)C(O)C(O)C2O)c1-c1ccccc1 (stereo not given)
stdout: label 0

stdin: Outcome? COc1ccc(CCN2C(=O)C(=O)N(C3CCCCC3)C2=O)cc1OC
stdout: label 0

stdin: Outcome? C=CCOc1cc(NC(=S)c2sccc2C)ccc1Cl
stdout: label 1

stdin: Outcome? CCN(CC)CCOc1ccc(C(O)(Cc2ccc(Cl)cc2)c2ccccc2)cc1 (stereo not given)
stdout: label 1

stdin: Outcome? FC1(F)C2=C(SC3=C(S2)C(F)(F)C3(F)F)C1(F)F
stdout: label 1

stdin: Outcome? c1c2c(cc(-n3nnc4c3CCCCCC4)c1-n1nnc3c1CCCCCC3)CCCCCC2
stdout: label 1

stdin: Outcome? O=[N+]([O-])c1ccccc1N=Nc1c(O)[nH]c2ccc(S(=O)(=O)O)cc12
stdout: label 1

stdin: Outcome? N/C(CC(=O)NOC(=O)c1ccccc1)=N/OC(=O)c1ccccc1
stdout: label 1

stdin: Outcome? NNc1ccc2ccccc2n1
stdout: label 1

stdin: Outcome? CCCCCSc1nc2ncnc(N)c2[nH]1
stdout: label 0

stdin: Outcome? Nc1nc2ccccc2cc1C(=O)O
stdout: label 0

stdin: Outcome? CC(=O)/C(=C\c1ccc(N(C)C)cc1)C(C)=[N+](C)C(=O)c1c(/[N+](C)=C(C)\C(=C\c2ccc(N(C)C)cc2)C(C)=O)ncn1C
stdout: label 0

stdin: Outcome? CCOc1cc2c(cc1O)CC[C@@H]1[C@@H]2CC[C@]2(C)[C@@H](O)CC[C@@H]12
stdout: label 0

stdin: Outcome? S=C(Nc1ccccc1)SCc1ccc(Cl)cc1
stdout: label 0

stdin: Outcome? CC[N+]1(C)CC2CCC(CC2)C1 (stereo not given)
stdout: label 1

stdin: Outcome? O=C(NCCCNCCCCNCCCNC(=O)c1cc(-c2ccccc2)nc2ccccc12)c1cc(-c2ccccc2)nc2ccccc12
stdout: label 1

stdin: Outcome? Cc1nc2c(Cl)cccc2c2ccccc12
stdout: label 1

stdin: Outcome? N#CN1CCCC(O)c2sc3ccccc3c2CC1 (stereo not given)
stdout: label 0

stdin: Outcome? Cc1ccc(S(=O)(=O)NC2(C=O)CCC(C(C)(C)C)CC2)cc1 (stereo not given)
stdout: label 1

stdin: Outcome? CCCCC(=O)c1nc(N(CC2CCCCC2)C(=O)NC)sc1N
stdout: label 0

These measurements were taken from PubChem BioAssay (NCI).
